# method_description: single dose toxicity and pharmacokinetics, rabbit
# Format: in vivo, New Zealand White rabbits
# experimental_context: New Zealand White, plasma, iv; rabbit male, single i.v. 25 mg/kg (NOAEL)
recorded_metric: AUC(0-inf) (ng·h/mL)
Express your answer in ng·h/mL, writing the number without its unit.

(Q) Given the entry CCCCCCC(C)(C)c1cc(O)c2c(c1)OC(C)(C)[C@H]1CC=C(CO)C[C@H]21 , report its measured AUC(0-inf).
(A) 20100
